Quick list: IC50 per entry.
- TARGET UNDER TEST: ALK (Homo sapiens, UniProt Q9UM73)
- Construct: host or cells: baculovirus expression system
- Sequence (Q9UM73 19-1620): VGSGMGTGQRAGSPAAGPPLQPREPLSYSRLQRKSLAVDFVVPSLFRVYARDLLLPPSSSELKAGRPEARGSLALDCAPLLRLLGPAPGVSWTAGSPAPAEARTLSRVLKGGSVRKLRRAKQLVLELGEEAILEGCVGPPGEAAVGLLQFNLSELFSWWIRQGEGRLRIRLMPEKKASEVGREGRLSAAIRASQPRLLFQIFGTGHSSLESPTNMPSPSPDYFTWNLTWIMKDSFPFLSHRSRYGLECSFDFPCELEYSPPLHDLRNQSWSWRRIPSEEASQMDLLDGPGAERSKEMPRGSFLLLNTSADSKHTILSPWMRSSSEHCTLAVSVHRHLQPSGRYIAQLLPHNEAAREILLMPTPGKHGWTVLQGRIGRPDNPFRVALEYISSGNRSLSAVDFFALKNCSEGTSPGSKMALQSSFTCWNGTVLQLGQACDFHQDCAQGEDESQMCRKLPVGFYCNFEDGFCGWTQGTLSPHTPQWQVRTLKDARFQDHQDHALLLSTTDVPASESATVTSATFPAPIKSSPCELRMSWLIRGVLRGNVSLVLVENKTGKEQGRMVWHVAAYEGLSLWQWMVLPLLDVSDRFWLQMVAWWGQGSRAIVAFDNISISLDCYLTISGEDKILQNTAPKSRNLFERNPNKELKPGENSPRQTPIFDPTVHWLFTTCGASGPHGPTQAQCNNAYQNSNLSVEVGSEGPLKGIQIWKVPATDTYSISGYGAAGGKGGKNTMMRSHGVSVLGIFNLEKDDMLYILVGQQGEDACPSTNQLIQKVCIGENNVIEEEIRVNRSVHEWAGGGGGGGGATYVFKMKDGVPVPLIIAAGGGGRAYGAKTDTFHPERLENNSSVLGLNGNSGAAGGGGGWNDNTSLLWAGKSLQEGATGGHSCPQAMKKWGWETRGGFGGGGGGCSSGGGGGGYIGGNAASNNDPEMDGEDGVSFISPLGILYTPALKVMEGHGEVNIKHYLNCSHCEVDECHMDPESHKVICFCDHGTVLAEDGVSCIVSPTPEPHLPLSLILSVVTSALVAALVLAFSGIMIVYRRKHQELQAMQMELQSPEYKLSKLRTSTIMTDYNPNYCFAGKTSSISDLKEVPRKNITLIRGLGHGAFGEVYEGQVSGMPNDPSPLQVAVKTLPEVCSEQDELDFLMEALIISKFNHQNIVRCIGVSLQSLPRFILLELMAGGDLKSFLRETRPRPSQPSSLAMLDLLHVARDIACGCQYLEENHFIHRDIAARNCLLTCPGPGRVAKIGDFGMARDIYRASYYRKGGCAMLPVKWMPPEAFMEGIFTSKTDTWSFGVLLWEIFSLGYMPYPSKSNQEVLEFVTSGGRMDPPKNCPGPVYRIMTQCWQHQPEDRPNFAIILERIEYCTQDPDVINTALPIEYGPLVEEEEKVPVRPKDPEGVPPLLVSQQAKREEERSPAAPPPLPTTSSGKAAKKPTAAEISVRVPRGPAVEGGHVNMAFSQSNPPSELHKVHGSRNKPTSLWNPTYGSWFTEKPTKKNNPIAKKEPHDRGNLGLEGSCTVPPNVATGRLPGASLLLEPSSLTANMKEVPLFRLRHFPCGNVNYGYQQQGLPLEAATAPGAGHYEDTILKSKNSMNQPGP
- MEASUREMENT NOTES: ALK Kinase Assay (ELISA/TRF, PLC-γ substrate)
- Type: biochemical
- EXPERIMENTAL CONTEXT: ALK kinase inhibition, 1 μM ATP; read-out: ALK Potency

Below, each entry is followed by its recorded IC50 result.
| MOLECULE | IC50 |
| --- | --- |
| c1cncc(-c2ccc3cnc(Nc4ccn(CCN5CCOCC5)n4)nn23)c1 [Example 1184] | > 10000 nM |
| Cn1ncc2cc(Nc3ncc4ccc(-c5cccc(S(=O)(=O)NC(C)(C)C)c5)n4n3)ccc21 [Example 1316] | 100 to 1000 nM |
| COc1cc(C2CCN(CC(N)=O)CC2)ccc1Nc1ncc2ccc(-c3cc(F)c(F)cc3N(C)S(C)(=O)=O)n2n1 [Example 746] | < 100 nM |
| CN(C)S(=O)(=O)c1ccc(Nc2ncc3ccc(-c4cccc(S(=O)(=O)NC(C)(C)C)c4)n3n2)cc1 [Example 593] | > 10000 nM |
| COc1ccc(-c2ccn3nc(Nc4ccc(N5CCN(C)CC5)cc4)ncc23)cc1 [Example 724] | > 10000 nM |
| CN1CCN(CC2CCN(c3ccc(Nc4ncc5ccc(-c6cccc(S(=O)(=O)NC(C)(C)C)c6)n5n4)cc3)CC2)CC1 [Example 589] | < 100 nM |
| COc1ccccc1-c1ccc2cnc(Nc3ccn(CC(=O)N4CCN(C)CC4)n3)nn12 [Example 1114] | 100 to 1000 nM |
| COc1cc(C2CCN(C(=O)CN)CC2)ccc1Nc1ncc2ccc(-c3ccccc3N(C)S(C)(=O)=O)n2n1 [Example 824] | < 100 nM |
| CCN1CCCC(CC)(c2ccc(Nc3ncc4ccc(-c5ccccc5N(C)S(C)(=O)=O)n4n3)cc2)C1 (racemic) [Example 778] | < 100 nM |
| COc1cc(C2CCN(C[C@H](O)C(F)(F)F)CC2)ccc1Nc1ncc2ccc(-c3ccccc3N(C)S(C)(=O)=O)n2n1 [Example 804] | < 100 nM |

The molecule COc1cc(C2(C#N)CCC(O)CC2)ccc1Nc1ncc2ccc(-c3ccccc3N(C)S(C)(=O)=O)n2n1 (stereo not drawn) [Example 1253] on ALK (Homo sapiens, UniProt Q9UM73): IC50 was < 100 nM

The molecule COc1c(Nc2ncc3ccc(-c4ccccc4N(C)S(C)(=O)=O)n3n2)cccc1C1CCN(C)CC1 [Example 776] on ALK (Homo sapiens, UniProt Q9UM73): IC50 was < 100 nM

The molecule COc1ccccc1-c1ccc2cnc(Nc3ccc4c(c3)CN(CC(N)=O)CC4)nn12 [Example 987] on ALK (Homo sapiens, UniProt Q9UM73): IC50 was 100 to 1000 nM

The molecule COc1cc(C2CCN(C[C@@H](O)CO)CC2)c(F)cc1Nc1ncc2ccc(-c3ccccc3OC)n2n1 [Example 550] on ALK (Homo sapiens, UniProt Q9UM73): IC50 was < 100 nM

The molecule CC(C)(C)NS(=O)(=O)c1cccc(-c2ccc3cnc(Nc4ccc(C5CCC(N6CCCC6)CC5)cc4)nn23)c1 (stereo not drawn) [Example 566] on ALK (Homo sapiens, UniProt Q9UM73): IC50 was 100 to 1000 nM

The molecule O=S(=O)(c1cccc(-c2ccc3cnc(Nc4ccc5nc(CO)[nH]c5c4)nn23)c1)N1CCCC1 [Example 1070] on ALK (Homo sapiens, UniProt Q9UM73): IC50 was 1000 to 10000 nM

The molecule COc1cc(C2CCN(C(=O)C(C)(C)N)CC2)ccc1Nc1ncc2ccc(-c3ccccc3N(C)S(C)(=O)=O)n2n1 [Example 822] on ALK (Homo sapiens, UniProt Q9UM73): IC50 was < 100 nM

The molecule CN1CCN(C)C(c2ccc(Nc3ncc4ccc(-c5ccccc5N(C)S(C)(=O)=O)n4n3)cc2)C1=O (stereo not drawn) [Example 1073] on ALK (Homo sapiens, UniProt Q9UM73): IC50 was 100 to 1000 nM

The molecule COc1ccccc1-c1ccc2cnc(Nc3ccc4c(c3)NC(=O)C4(C)C)nn12 [Example 656] on ALK (Homo sapiens, UniProt Q9UM73): IC50 was 100 to 1000 nM

All values here come from patent US8471005B2.
